Provenance of the data: paper PMC7226963

System: FC1199 cells
Assay: FC1199 proliferation assay (crystal violet)
Assay type: cell-based, murine
Conditions: Mus musculus, 72 h, gemcitabine with BLR100 20 nM, 72 h incubation, mean and SD of two experiments, read-out: IC50 of gemcitabine on FC1199 cell proliferation
Procedure: FC1199 were seeded into 96-well plates in DMEM supplemented with 5% FCS. At 24 h after seeding, cells were exposed to increasing concentrations of BLR100 and BLR200 alone or in combination with increasing concentrations of gemcitabine. After a 72 h incubation, cells were fixed and stained with crystal violet solution (Sigma–Aldrich, Merck Life Science, Milano, Italy). The staining was eluted with a 1:1 ethanol/0.1 M sodium citrate solution, and the absorbance at 595 nm was measured. […]
MEASURED PROPERTY: IC50 (nM)

CHEMICAL STRUCTURE: Nc1ccn([C@@H]2O[C@H](CO)[C@@H](O)C2(F)F)c(=O)n1
MEASURED PROPERTY: IC50
UNITS SYMBOL: nM
NUMBER: 13.2

----------
tested on: FC1199 cells; assay: FC1199 proliferation assay (crystal violet); assay type: cell-based, murine; settings: Mus musculus, 72 h, gemcitabine with BLR100 100 nM, 72 h incubation, mean and SD of two experiments, read-out: IC50 of gemcitabine on FC1199 cell proliferation
pIC50: −log10 of the molar value.

CHEMICAL STRUCTURE: Nc1ccn([C@@H]2O[C@H](CO)[C@@H](O)C2(F)F)c(=O)n1
SYSTEM UNDER TEST: FC1199 cells
pIC50: 7.92
